Listed here: items and their measured Percent Effect.
targetDesc: Sialic acid-binding Ig-like lectin 9 (Homo sapiens) (UniProt Q9Y336)
Sequence (Q9Y336 whole entry): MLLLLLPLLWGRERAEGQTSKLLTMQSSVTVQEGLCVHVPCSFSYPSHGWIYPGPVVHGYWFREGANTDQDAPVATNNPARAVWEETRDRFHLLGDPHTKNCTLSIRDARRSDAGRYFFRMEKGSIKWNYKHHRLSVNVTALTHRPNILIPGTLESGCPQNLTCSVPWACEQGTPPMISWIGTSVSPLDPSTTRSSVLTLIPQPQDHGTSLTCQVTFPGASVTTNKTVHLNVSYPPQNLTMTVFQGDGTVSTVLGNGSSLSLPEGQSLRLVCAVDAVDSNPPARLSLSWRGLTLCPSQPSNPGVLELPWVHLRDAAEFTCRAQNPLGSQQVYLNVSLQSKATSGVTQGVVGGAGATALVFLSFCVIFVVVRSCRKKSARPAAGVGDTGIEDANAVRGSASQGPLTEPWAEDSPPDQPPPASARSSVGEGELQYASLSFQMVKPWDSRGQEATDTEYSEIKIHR
testMethodNotes: Hs-Siglec9 ALPHAscreen SOP 20170721
Set-up: scale not given: direction of the effect not stated beside the values
assayConditions: 10 µM
Field: numeric (%). Do not append units.

Guide cases for Percent Effect, answers given:
{"compound": "CCn1ncc(Br)c1CN(C)S(=O)(=O)c1ccc(C)cc1", "propertyMeasured": "Percent Effect", "observedMeasurement": -0.565}
{"compound": "COc1ccc(C)cc1CN(C)Cc1nc2c(cnn2C)c(=O)[nH]1", "propertyMeasured": "Percent Effect", "observedMeasurement": 2.21}
{"compound": "CCNC(c1ccc(OC)cc1)c1cccnc1 (centres undefined)", "propertyMeasured": "Percent Effect", "observedMeasurement": 9.44}

If you can, please state the reported Percent Effect value of `CCS(=O)(=O)c1ccc(N2CCC(NC(=O)CCC(C)C)CC2)cc1` .
12.2

What does the record list as Percent Effect for O=C(Cc1noc2ccccc12)N1CCCC1c1noc(C2CC2)n1 (centres undefined) ?
3.85

====

Tested on: Trypanosoma cruzi
testMethodNotes: Trypanosoma cruzi phosphomannomutase and mannose-1-phosphate guanylyltransferase assay
Type: functional
Parameters: scale not given: direction of the effect not stated beside the values
assayConditions: 10 µM
Quick list: Percent Effect per entry.
Value expressed in %; do not type the unit.

Consider the following illustrative entries.
{"compound": "O=C(c1ccc(F)cc1F)N1C[C@@H](O)[C@H](N2CCOCC2)C1", "observedMeasurement": -0.789}
{"compound": "CNS(=O)(=O)c1cc(C(=O)NC2CCOc3ccccc32)cc(C)c1C (stereo unspecified)", "observedMeasurement": -3.41}
{"compound": "O=C(NCc1nncn1-c1ccccc1)C1CC(=O)N(CC2CC2)C1 (stereo unspecified)", "observedMeasurement": -3.3}
{"compound": "COc1ccc(OC)c(-c2nc(CN(C)Cc3nncn3C)c(C)o2)c1", "observedMeasurement": -1.57}
{"compound": "Cc1cnc(C(=O)N2CCCCC2c2[nH]ncc2S(C)(=O)=O)cn1 (stereo unspecified)", "observedMeasurement": -0.986}

Look at this compound and give its reported Percent Effect. Cc1nc(NC2CCCC2)cc(C2CCN2C(=O)c2ccccc2)n1 (stereo unspecified)
3.16

====

targetDesc: Protein translocase subunit SecA (Escherichia coli (strain K12))
testMethodNotes: Assay to Identify E. coli SecA ATPase Inhibitors
Assay type: functional
Parameters: scale not given: direction of the effect not stated beside the values
assayConditions: 30 µM
Measured potencies and affinities stand elsewhere.
Below, each of the compounds is paired with its reported Percent Effect value.
Give just the number in %; leave the unit off.

{"compound": "COCCCNC(=O)N1CCCC(c2nncn2C)C1 (stereo not given)", "Percent Effect, %": -5.16}
{"compound": "Cc1ccc(C(=O)NCCS(C)(=O)=O)c(=O)[nH]1", "Percent Effect, %": -3.94}
{"compound": "CCCNCc1cn(C)nc1-c1cccnc1", "Percent Effect, %": -2.45}
{"compound": "CCOC(=O)CNC(=O)c1cccnc1Oc1ccc(Cl)cc1", "Percent Effect, %": 3.19}
{"compound": "O=C(c1ccc[nH]1)N1CCC(c2nccn2Cc2ccncc2)CC1", "Percent Effect, %": -3.39}
{"compound": "O=C1CC2(CCCNC2)C(=O)N1Cc1ccc(F)cc1 (stereo not given)", "Percent Effect, %": -2.69}
{"compound": "CN1C[C@H]2CCN(C(=O)NC3CCCC3)CC[C@H]2S1(=O)=O", "Percent Effect, %": 1.67}
{"compound": "Cc1nc(C)n(CC2CCCN2Cc2nc(C3CC3)no2)n1 (stereo not given)", "Percent Effect, %": -1.33}

For the compound shown here, COc1ccc(-c2noc(CNC(C)Cn3cccn3)n2)c(OC)c1 (stereo not given) , give the reported Percent Effect.
-5.86

Please give the measured Percent Effect for this compound: `CCn1cc(CN(C)C(=O)c2cccc(CCC(C)(C)O)c2)cn1`
-5.71

I have this compound here, CC(NCc1c(C(C)C)nn(C)c1N1CCOCC1)C(N)=O (stereo not given) , and I need its recorded Percent Effect.
-5.06

Query (compound): `O=C(NCc1nn(-c2ccccc2)c2c1CCC2)NC1CC1` ; field requested: Percent Effect
-4.01

What value of measured Percent Effect is listed for `CN(C)C(=O)N1CCN(Cc2nnc(C(C)(C)C)o2)CC1` ?
-0.665

Fill in: Percent Effect of O=C1CC(c2ccncc2)C2(CCN(C(=O)c3ccc[nH]3)CC2)N1 (stereo not given) is ___
-2.27

What does the record list as Percent Effect for `COc1ncnc2c1CCN(c1cc(C(F)(F)F)ncn1)CC2` ?
-3.48

Fill in: Percent Effect of `Cc1c[nH]cc1C(=O)N1CCN(CCc2cccs2)CC1` is ___
-4.85

What does the data say about its Percent Effect? Entry: `Cc1ccc(-c2nnc(CNCCn3cc(C)cn3)o2)cc1`
0.127

Give its Percent Effect value. Item: `CS(=O)(=O)c1ccc(NC(=O)N2CCc3sccc3C2)cn1`
-2.17

Record request: Percent Effect value, item Cn1cnc2c1C(COCC1CC1)CN(Cc1ccsc1)C2 (stereo not given)
-1.29

GET /values?readout=Percent Effect&item= c1ccc(CN2CCOCC3(CCN(C4CCOCC4)C3)C2)cc1 (stereo not given)
-5.53

State the recorded Percent Effect for this entry: Cc1cc(C)n(C2CCCN(C(=O)Cc3csc(C)n3)C2)n1 (stereo not given)
-3.62

I am curious: what Percent Effect value has been reported for C[S+]([O-])c1nncn1CC(=O)c1ccc(Cl)c(Cl)c1 (stereo not given) ?
-5.28

What Percent Effect value was documented for this compound, CNC(=O)C1(c2cnccn2)CCCN1C(=O)c1ccccc1OC (stereo not given) ?
0.772

Report Percent Effect for `Cc1ccc(CNC(=O)NCCCn2nc3ccccn3c2=O)s1` please.
-7.23

Form field: reported Percent Effect of CC(C)c1nc2n(n1)CC(NCc1nnnn1C1CC1)CC2 (stereo not given)
-2.7

====

targetDesc: Ubiquitin-activating enzyme e1, putative (Leishmania donovani (strain BPK282A1))
testMethodNotes: Leishmania donovani Ubiquitin Activating Enzyme (LdE1)
Type: functional
Parameters: scale not given: direction of the effect not stated beside the values
assayConditions: 30 µM
Potency and affinity values are given separately.
propertyMeasured: Percent Effect (%)
Give the quantity in %, number only.

{"compound": "Cc1ccc(CN2CCCC3(COCCN(Cc4c[nH]nn4)C3)C2)o1 (stereo not drawn)", "Percent Effect / %": 2.67}

State the recorded Percent Effect for this entry: CC(=O)N1CCNCC1c1cccc(C(=O)N(C)C)c1 (stereo not drawn)
-6.76

Consider the compound `Cc1ccc(S(=O)(=O)N2CCOc3ccccc32)cc1C(N)=O` and give its measured Percent Effect.
10.3

Look up Percent Effect: Cn1cccc1C(=O)N1CCCC2(CCCN2Cc2cccnc2)C1 (stereo not drawn)
-1.3

Entry COc1c(C2CCCN2C(=O)c2ccnc(N(C)C)c2)c(C)nn1C (stereo not drawn) : reported Percent Effect = ?
5.2

====

targetDesc: AMP-activated protein kinase, AMPK (Homo sapiens) (UniProt P54646+O43741+P54619+Q9UGJ0+Q9Y478+Q13131+Q9UGI9)
testMethodNotes: AMP-dependent Kinase enzyme assay. An in vitro enzyme assay that detects ADP turnover that is directly proportional to AMPK activity. This uses naive AMPK that is activated during the assay with MK-8722
Format: functional
Design: scale not given: direction of the effect not stated beside the values
assayConditions: 30 µM
Each entry below lists one item and its recorded Percent Effect value.
Numeric answer only, unit % assumed.

Solved entries:
{"compound": "Cc1cc(C)n(CC(=O)N(C)Cc2csc(-c3cccs3)n2)c(=O)n1", "Percent Effect (%)": -4.15}
{"compound": "CN(C)C(=O)c1nc2c(s1)CCN(C(=O)c1ccc(Cl)cc1)CC2", "Percent Effect (%)": -9.31}
{"compound": "NC(=O)C1CCCN(Cc2c(-c3ccco3)[nH]c3ncccc23)C1 (stereo unspecified)", "Percent Effect (%)": -2.48}
{"compound": "CC(C)c1ncc(CN2CCCC(CO)C2)cn1 (stereo unspecified)", "Percent Effect (%)": 11.1}
{"compound": "O=C(Cc1csc(-c2ccc(Cl)cc2)n1)NC(C(=O)O)c1ccccc1 (stereo unspecified)", "Percent Effect (%)": 10.5}

Recorded Percent Effect of `Cc1cccc(CN2C(=O)CO[C@@H]3CN(CCO)C[C@H]32)c1` , please.
-5.9

====

targetDesc: Tyrosyl-tRNA synthetase, putative (Trypanosoma cruzi (strain CL Brener))
testMethodNotes: Trypanosoma cruzi tyrosyl tRNA synthetase (TcYRS) SOP
Type: functional
Parameters: scale not given: direction of the effect not stated beside the values
assayConditions: 30 µM
propertyMeasured: Percent Effect (%)
Your answer is read as %, so omit the unit and give the number.

Example cases with answers are listed next.
{"molecule": "CCN1CC(C(=O)NC(C)(C)CC(C)(C)C)CC1=O (centres undefined)", "observedMeasurement": 8.64}
{"molecule": "CCC(CC)c1cc(CNC(=O)N2CCOCC2CC)on1 (centres undefined)", "observedMeasurement": 1.24}
{"molecule": "NCc1cn(-c2ccccc2C(=O)NCc2ccccc2)cn1", "observedMeasurement": 15}
{"molecule": "Cn1cc(C[C@H]2[C@H](N3CCOCC3)CCN2C(=O)c2ccco2)cn1", "observedMeasurement": 6.41}
{"molecule": "Cc1ccc(CNC(=O)CN2CCCC(Cn3cncn3)C2)s1 (centres undefined)", "observedMeasurement": 12.8}

Endpoint output: Percent Effect of CC(=O)NC(C)c1ccc(OCC2CC2)c(F)c1 (centres undefined) . Value?
7.79

Can you share its Percent Effect? I mean this molecule: CC(=O)N1N=C(c2ccccc2)OC1C(=O)NCCC1=CCCCC1 (centres undefined)
5

Which Percent Effect value belongs to `COCCNC(=O)c1cc2c(s1)CCN2C(=O)c1ccccc1` ?
15

Value lookup for Percent Effect; key = CN1CC(=O)N(c2ccccc2)CC12CCN(CC1CC1)C2 (centres undefined)
0

Would you mind telling me what Percent Effect value was observed for Cc1cnn(CC2CCCN2C(=O)Cc2n[nH]c3ccccc23)c1 (centres undefined) ?
11.4

Which Percent Effect is listed for `CCCNC(=O)c1ccc2c(c1)C(=O)N(CC(C)C)C2=O` ?
2.44

// lookup Percent Effect for O=C(NCCc1ccccc1)C1CCCN(c2ccc3nncn3n2)C1 (centres undefined)
7.32

Bench note: what Percent Effect did CN(C)Cc1ccc(C2CCCCN2C(=O)c2cccc(CO)n2)cc1 (centres undefined) show?
14.6
